targetUnderTest: hBChE (Homo sapiens)
Sequence (P06276 29-602): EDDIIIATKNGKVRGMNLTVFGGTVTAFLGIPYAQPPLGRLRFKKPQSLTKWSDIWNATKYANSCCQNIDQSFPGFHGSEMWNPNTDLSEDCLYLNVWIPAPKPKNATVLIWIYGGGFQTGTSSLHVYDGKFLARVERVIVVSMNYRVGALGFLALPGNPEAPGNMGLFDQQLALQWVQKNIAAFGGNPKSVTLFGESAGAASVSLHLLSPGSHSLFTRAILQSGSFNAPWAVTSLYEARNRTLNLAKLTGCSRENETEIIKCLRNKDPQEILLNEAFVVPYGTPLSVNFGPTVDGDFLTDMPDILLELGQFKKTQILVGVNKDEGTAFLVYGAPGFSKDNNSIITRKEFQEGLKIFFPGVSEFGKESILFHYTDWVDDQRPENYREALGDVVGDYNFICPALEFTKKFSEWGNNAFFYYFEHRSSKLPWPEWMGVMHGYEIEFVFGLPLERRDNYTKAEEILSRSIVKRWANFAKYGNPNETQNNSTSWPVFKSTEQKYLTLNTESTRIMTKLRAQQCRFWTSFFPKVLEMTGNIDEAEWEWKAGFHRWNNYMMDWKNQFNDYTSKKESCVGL
Known IC50 of a selection of compounds
metric: IC50

# compound, metric, endpointResult
records = [
    ("O=[N+]([O-])c1ccc(N2CCN(Cc3nnc(-c4ccccc4)o3)CC2)cc1 [5AF]", "IC50", "> 10 µM"),
    ("c1ccc(-c2nnc(CN3CCN(c4ccccc4)CC3)o2)cc1 [5AA]", "IC50", "> 10 µM"),
    ("COc1ccc(N2CCN(Cc3nnc(-c4ccccc4)o3)CC2)cc1 [5AH]", "IC50", "> 10 µM"),
    ("c1ccc(CN2CCN(Cc3nnc(-c4ccccc4)o3)CC2)cc1 [5AB]", "IC50", "> 10 µM"),
    ("Cc1ccc(N2CCN(Cc3nnc(-c4ccccc4)o3)CC2)cc1 [5AG]", "IC50", "> 10 µM"),
    ("c1ccc(-c2nnc(CN3CCN(c4ccccn4)CC3)o2)cc1 [5AD]", "IC50", "≥ 10 µM"),
]

---

Known pIC50 of a selection of molecules
targetUnderTest: hAChE (Homo sapiens, UniProt P22303)
Sequence (P22303 32-617 isoform P22303-2 limits assumed): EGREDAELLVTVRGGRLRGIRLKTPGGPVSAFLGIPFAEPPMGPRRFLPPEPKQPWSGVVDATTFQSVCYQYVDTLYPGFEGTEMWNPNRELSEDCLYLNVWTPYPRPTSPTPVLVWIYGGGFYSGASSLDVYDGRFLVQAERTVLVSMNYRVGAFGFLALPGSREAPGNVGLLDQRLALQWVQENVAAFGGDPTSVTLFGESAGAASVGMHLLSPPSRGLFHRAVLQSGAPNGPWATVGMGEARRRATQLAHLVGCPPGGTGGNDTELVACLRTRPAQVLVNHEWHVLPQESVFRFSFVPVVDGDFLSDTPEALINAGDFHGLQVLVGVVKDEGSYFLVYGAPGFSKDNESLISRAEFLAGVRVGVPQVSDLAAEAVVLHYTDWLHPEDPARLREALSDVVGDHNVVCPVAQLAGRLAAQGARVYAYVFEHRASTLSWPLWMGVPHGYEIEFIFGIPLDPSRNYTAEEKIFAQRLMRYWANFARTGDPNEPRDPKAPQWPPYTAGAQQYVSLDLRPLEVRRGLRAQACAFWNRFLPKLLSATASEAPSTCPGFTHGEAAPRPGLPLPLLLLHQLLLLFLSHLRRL
pIC50: −log10 of the molar value.

# smilesNotation, pIC50
measured = [
    ("c1ccc(-c2nnc(CN3CCN(c4ccccc4)CC3)o2)cc1", 5.74),
    ("COc1ccc(N2CCN(Cc3nnc(-c4ccccc4)o3)CC2)cc1", 5.83),
    ("O=[N+]([O-])c1ccc(N2CCN(Cc3nnc(-c4ccccc4)o3)CC2)cc1", 5.73),
    ("c1ccc(CN2CCN(Cc3nnc(-c4ccccc4)o3)CC2)cc1", 5.75),
    ("c1ccc(-c2nnc(CN3CCN(C(c4ccccc4)c4ccccc4)CC3)o2)cc1", 5.50),
    ("c1ccc(-c2nnc(CN3CCN(c4ccccn4)CC3)o2)cc1", 6.99),
    ("Cc1ccc(N2CCN(Cc3nnc(-c4ccccc4)o3)CC2)cc1", 5.59),
    ("Cc1ccc(CN2CCN(Cc3nnc(-c4ccccc4)o3)CC2)cc1", 5.75),
]

---

Here's what we have: IC50 numbers for hBACE-1 (Homo sapiens, UniProt P56817).
metric: IC50 (µM)

# smilesNotation, readoutQualifier, endpointResult
rows = [
    ("COc1ccc(N2CCN(Cc3nnc(-c4ccccc4)o3)CC2)cc1", "=", 1.68),
    ("Cc1ccc(N2CCN(Cc3nnc(-c4ccccc4)o3)CC2)cc1", "=", 3.81),
    ("c1ccc(-c2nnc(CN3CCN(C(c4ccccc4)c4ccccc4)CC3)o2)cc1", "=", 5.62),
    ("c1ccc(CN2CCN(Cc3nnc(-c4ccccc4)o3)CC2)cc1", ">", 10),
    ("Cc1ccc(CN2CCN(Cc3nnc(-c4ccccc4)o3)CC2)cc1", "=", 0.392),
    ("O=[N+]([O-])c1ccc(N2CCN(Cc3nnc(-c4ccccc4)o3)CC2)cc1", "=", 6.24),
    ("c1ccc(-c2nnc(CN3CCN(c4ccccn4)CC3)o2)cc1", "=", 1.34),
]

---

measurementNotes: DPPH radical scavenging assay
measurementParameters: in methanol
Please respond with YES when measured % RSA of DPPH ± SEM at 25 μM is strictly beneath 40%, and with NO in all other cases.

# compound, discreteLabel
measured = [
    ("c1ccc(-c2nnc(CN3CCN(c4ccccn4)CC3)o2)cc1", "NO"),
    ("O=C1O[C@H]([C@@H](O)CO)C(O)=C1O [Ascorbic acid, reference compound]", "NO"),
    ("Cc1ccc(CN2CCN(Cc3nnc(-c4ccccc4)o3)CC2)cc1", "YES"),
    ("COc1ccc(N2CCN(Cc3nnc(-c4ccccc4)o3)CC2)cc1", "YES"),
    ("c1ccc(CN2CCN(Cc3nnc(-c4ccccc4)o3)CC2)cc1", "NO"),
    ("Cc1ccc(N2CCN(Cc3nnc(-c4ccccc4)o3)CC2)cc1", "YES"),
]

Hey, just so you know, these numbers are from paper PMC11044217.
